- assay_procedure: Pharmacokinetics in rats, intravenous or intraduodenal administration
- Format: in vivo
- assay_setup: rat, i.v., 10.0 mg/kg
metric: MRT (min)

[
  {
    "molecule": "Cc1ccccc1CNC(=O)[C@H]1N(C(=O)[C@@H](O)[C@H](Cc2ccccc2)NC(=O)c2cccc(O)c2C)CSC1(C)C",
    "unit_string": "min",
    "obs_value": 74.7
  },
  {
    "molecule": "CCc1c(O)cccc1C(=O)N[C@@H](Cc1ccccc1)[C@H](O)C(=O)N1CSC[C@H]1C(=O)NC(C)(C)C",
    "unit_string": "min",
    "obs_value": 96.0
  },
  {
    "molecule": "Cc1c(O)cccc1C(=O)N[C@@H](Cc1ccccc1)[C@H](O)C(=O)N1CSC[C@H]1C(=O)NC(C)(C)C",
    "unit_string": "min",
    "obs_value": 31.7
  }
]

[a] Cc1c(O)cccc1C(=O)N[C@@H](Cc1ccccc1)[C@H](O)C(=O)N1CSC(C)(C)[C@H]1C(=O)NC(C)(C)C
[b] CCc1c(O)cccc1C(=O)N[C@@H](Cc1ccccc1)[C@H](O)C(=O)N1CSC(C)(C)[C@H]1C(=O)NC(C)(C)C
Exam item: # argmax over MRT for candidates a and b # reply format: chosen label
Marked response: b

* * *

- assay_procedure: Pharmacokinetics in rats, intravenous or intraduodenal administration
- Type: in vivo
- assay_setup: rat, i.v., 10.0 mg/kg
metric: AUC (µg/mL/min)

Past entries and their recorded results:
[
  {
    "compound": "CCc1c(O)cccc1C(=O)N[C@@H](Cc1ccccc1)[C@H](O)C(=O)N1CSC[C@H]1C(=O)NC(C)(C)C [Compound of example 31]",
    "unit_string": "µg/mL/min",
    "AUC": 276
  },
  {
    "compound": "CSC[C@H](NC(=O)COc1cccc2cnccc12)C(=O)N[C@@H](Cc1ccccc1)[C@H](O)C(=O)N1CSC[C@H]1C(=O)NC(C)(C)C [KNI-272, reference compound]",
    "unit_string": "µg/mL/min",
    "AUC": 224
  }
]

[a] CCc1c(O)cccc1C(=O)N[C@@H](Cc1ccccc1)[C@H](O)C(=O)N1CSC(C)(C)[C@H]1C(=O)NC(C)(C)C [Compound of example 36]
[b] Cc1c(O)cccc1C(=O)N[C@@H](Cc1ccccc1)[C@H](O)C(=O)N1CSC(C)(C)[C@H]1C(=O)NC(C)(C)C [Compound of example 22]
Exam item: # argmax over AUC for candidates a and b # reply format: chosen label
Marked response: a

* * *

- assay_procedure: Pharmacokinetics in rats, intravenous or intraduodenal administration
- Type: in vivo
- assay_setup: rat, i.d., 10.0 mg/kg
metric: F (bioavailability on intraduodenal administration) (%)

[
  {
    "compound": "CSC[C@H](NC(=O)COc1cccc2cnccc12)C(=O)N[C@@H](Cc1ccccc1)[C@H](O)C(=O)N1CSC[C@H]1C(=O)NC(C)(C)C [KNI-272, reference compound]",
    "obs_value": 43.20
  },
  {
    "compound": "Cc1ccccc1CNC(=O)[C@H]1N(C(=O)[C@@H](O)[C@H](Cc2ccccc2)NC(=O)c2cccc(O)c2C)CSC1(C)C",
    "obs_value": 41.55
  },
  {
    "compound": "CCc1c(O)cccc1C(=O)N[C@@H](Cc1ccccc1)[C@H](O)C(=O)N1CSC(C)(C)[C@H]1C(=O)NC(C)(C)C",
    "obs_value": 37.01
  },
  {
    "compound": "Cc1ccccc1CNC(=O)[C@@H]1CSCN1C(=O)[C@@H](O)[C@H](Cc1ccccc1)NC(=O)c1cccc(O)c1C",
    "obs_value": 32.26
  },
  {
    "compound": "CCc1c(O)cccc1C(=O)N[C@@H](Cc1ccccc1)[C@H](O)C(=O)N1CSC[C@H]1C(=O)NC(C)(C)C",
    "obs_value": 36.24
  }
]

* * *

- assay_procedure: Pharmacokinetics in rats, intravenous or intraduodenal administration
- Type: in vivo
- assay_setup: rat, i.v., 10.0 mg/kg
metric: t1/2 (λ) (min)

[
  {
    "compound": "Cc1ccccc1CNC(=O)[C@H]1N(C(=O)[C@@H](O)[C@H](Cc2ccccc2)NC(=O)c2cccc(O)c2C)CSC1(C)C",
    "t1/2 (λ), min": 92.63
  },
  {
    "compound": "CCc1c(O)cccc1C(=O)N[C@@H](Cc1ccccc1)[C@H](O)C(=O)N1CSC(C)(C)[C@H]1C(=O)NC(C)(C)C",
    "t1/2 (λ), min": 83.90
  },
  {
    "compound": "CCc1c(O)cccc1C(=O)N[C@@H](Cc1ccccc1)[C@H](O)C(=O)N1CSC[C@H]1C(=O)NC(C)(C)C",
    "t1/2 (λ), min": 73.81
  },
  {
    "compound": "Cc1c(O)cccc1C(=O)N[C@@H](Cc1ccccc1)[C@H](O)C(=O)N1CSC[C@H]1C(=O)NC(C)(C)C",
    "t1/2 (λ), min": 35.98
  },
  {
    "compound": "CSC[C@H](NC(=O)COc1cccc2cnccc12)C(=O)N[C@@H](Cc1ccccc1)[C@H](O)C(=O)N1CSC[C@H]1C(=O)NC(C)(C)C [KNI-272, reference compound]",
    "t1/2 (λ), min": 25.57
  }
]

[1] Cc1c(O)cccc1C(=O)N[C@@H](Cc1ccccc1)[C@H](O)C(=O)N1CSC(C)(C)[C@H]1C(=O)NC(C)(C)C
[2] Cc1ccccc1CNC(=O)[C@@H]1CSCN1C(=O)[C@@H](O)[C@H](Cc1ccccc1)NC(=O)c1cccc(O)c1C
Exam item: # argmax over t1/2 (λ) for candidates 1 and 2 # reply format: chosen label
Marked response: 2

* * *

- assay_procedure: Pharmacokinetics in rats, intravenous or intraduodenal administration
- Assay type: in vivo
- assay_setup: rat, i.d., 10.0 mg/kg
metric: AUC (µg/mL/min)

Past entries and their recorded results:
[
  {
    "compound": "CCc1c(O)cccc1C(=O)N[C@@H](Cc1ccccc1)[C@H](O)C(=O)N1CSC[C@H]1C(=O)NC(C)(C)C [Compound of example 31]",
    "unit_string": "µg/mL/min",
    "AUC": 99
  },
  {
    "compound": "CSC[C@H](NC(=O)COc1cccc2cnccc12)C(=O)N[C@@H](Cc1ccccc1)[C@H](O)C(=O)N1CSC[C@H]1C(=O)NC(C)(C)C [KNI-272, reference compound]",
    "unit_string": "µg/mL/min",
    "AUC": 98
  },
  {
    "compound": "Cc1ccccc1CNC(=O)[C@H]1N(C(=O)[C@@H](O)[C@H](Cc2ccccc2)NC(=O)c2cccc(O)c2C)CSC1(C)C [Compound of example 37]",
    "unit_string": "µg/mL/min",
    "AUC": 55
  }
]

[P] Cc1ccccc1CNC(=O)[C@@H]1CSCN1C(=O)[C@@H](O)[C@H](Cc1ccccc1)NC(=O)c1cccc(O)c1C [Compound of example 34]
[Q] CCc1c(O)cccc1C(=O)N[C@@H](Cc1ccccc1)[C@H](O)C(=O)N1CSC(C)(C)[C@H]1C(=O)NC(C)(C)C [Compound of example 36]
Exam item: # argmax over AUC for candidates P and Q # reply format: chosen label
Marked response: Q
(Q: 64 µg/mL/min, P: 40 µg/mL/min)

* * *

- assay_procedure: Pharmacokinetics in rats, intravenous or intraduodenal administration
- Type: in vivo
- assay_setup: rat, i.v., 10.0 mg/kg
metric: AUC (µg/mL/min)

[
  {
    "compound": "Cc1ccccc1CNC(=O)[C@@H]1CSCN1C(=O)[C@@H](O)[C@H](Cc1ccccc1)NC(=O)c1cccc(O)c1C [Compound of example 34]",
    "AUC / µg/mL/min": 124
  },
  {
    "compound": "Cc1c(O)cccc1C(=O)N[C@@H](Cc1ccccc1)[C@H](O)C(=O)N1CSC[C@H]1C(=O)NC(C)(C)C [Compound of example 21]",
    "AUC / µg/mL/min": 111
  },
  {
    "compound": "Cc1ccccc1CNC(=O)[C@H]1N(C(=O)[C@@H](O)[C@H](Cc2ccccc2)NC(=O)c2cccc(O)c2C)CSC1(C)C [Compound of example 37]",
    "AUC / µg/mL/min": 131
  }
]
